- Target entity: human CD33 on primary human dendritic cells (human, UniProt P20138 18-364)
- Sequence (P20138 18-364): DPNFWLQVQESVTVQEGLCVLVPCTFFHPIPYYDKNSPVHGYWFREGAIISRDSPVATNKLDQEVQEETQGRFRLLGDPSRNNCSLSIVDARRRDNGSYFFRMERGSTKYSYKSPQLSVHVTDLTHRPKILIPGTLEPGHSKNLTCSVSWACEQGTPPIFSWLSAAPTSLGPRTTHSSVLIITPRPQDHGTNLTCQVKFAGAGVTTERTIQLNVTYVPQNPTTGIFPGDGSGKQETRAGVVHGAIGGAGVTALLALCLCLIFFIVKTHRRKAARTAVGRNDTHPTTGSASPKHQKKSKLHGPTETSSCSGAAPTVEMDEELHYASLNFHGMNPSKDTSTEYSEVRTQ
- Method: cell-based or functional assay
Property name: Receptor downregulation, (EC50) (pM)
Answers are plain numbers, in pM.

Batch of 3 binders: report Receptor downregulation, (EC50) (pM) for each.
1. anti-CD33 antibody 6C7H12 (antibody, V domains shown, VH/VL only) VH: EVQLVESGGGLVQPGGSLRLSCAGSGFTFSNYGMNWVRQAPGKGLEWVAEIRLKSNNYVTNYAASVKGRFTISRDDSKNSVYLQMNSLKTEDTGVYYCTRAGYYVPFAYWGQGTLVTVSS VL: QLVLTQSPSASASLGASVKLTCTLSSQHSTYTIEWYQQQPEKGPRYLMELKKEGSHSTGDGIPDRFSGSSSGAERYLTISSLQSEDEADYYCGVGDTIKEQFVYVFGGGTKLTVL
2. anti-CD33 antibody 6C7H10 (antibody, IgG1, V domains shown, VH/VL only; also called 6C7H10 IgG1) VH: EVQLVESGGGLVQPGGSLRLSCAASGFTFSEYAMNWVRQAPGKGLEWVGEIRLKSNNYVTNYAASVKGRFTISRDDSKNSVYLQMNSLKTEDTGVYYCTRAGYYVPFAYWGQGTLVTVSS VL: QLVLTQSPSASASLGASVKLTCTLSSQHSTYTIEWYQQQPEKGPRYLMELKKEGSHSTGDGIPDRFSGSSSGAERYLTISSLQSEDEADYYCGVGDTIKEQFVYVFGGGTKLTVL
3. anti-CD33 antibody 6C7H29 (antibody, V domains shown, VH/VL only) VH: EVQLVESGGGLVQPGGSLRLSCAGSGFTFSAYSMNWVRQAPGKGLEWVAEIRLKSNNYVTNYAASVKGRFTISRDDSKNSVYLQMNSLKTEDTGVYYCTRAGYYVPFAYWGQGTLVTVSS VL: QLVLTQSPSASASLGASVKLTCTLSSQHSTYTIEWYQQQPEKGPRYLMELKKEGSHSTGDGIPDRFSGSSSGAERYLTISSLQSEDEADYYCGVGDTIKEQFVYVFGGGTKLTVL

[160, 778, 134]

meta.source: patent US20250270319A1
